protocolDetails: chemical genetic growth profiling, strain panel (AID 1159580);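 note: tested at 20 µM; growth read once vehicle control cultures reached saturation at 30 °C; 1 = growth at the plate median or of vehicle wells; lower values mean less growth of the strain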
reportedConditions: S. cerevisiae deletion strains, growth OD, locus YMR058W, strain fet3
Screen size: about 5,500 compounds; about 2,000 (36%) were called active. About 18% were inconclusive and are not listed. Cut-off read from the data, not from the text of the source: active = normalized growth mostly below about 0.91 (no sharp cut-off); inconclusive = no clear call, values can overlap the other calls; inactive = mostly above about 0.92. Some of the results follow.
Answer with one of the outcomes yes (1) for active, no (0) for inactive

Here are 4 compounds together with their reported answers.
{"compound": "Clc1ccc(C(c2ccccc2Cl)C(Cl)Cl)cc1 (stereo not given)", "labelClass": "no (0)"}
{"compound": "CN(C/C=C/C#CC(C)(C)C)Cc1cccc2ccccc12", "labelClass": "yes (1)"}
{"compound": "CCC(=O)OC1[C@@H]2CC3=C4CC(=O)O[C@@H](c5ccoc5)[C@]4(C)CCC3[C@@](C)(C2=O)[C@@H](CC(=O)OC)C1(C)C (stereo not given in full)", "labelClass": "no (0)"}
{"compound": "Cc1nnc(NS(=O)(=O)c2ccc(N)cc2)s1", "labelClass": "no (0)"}

For this compound, state the assay outcome: COP(=S)(OC)Oc1ccc(Sc2ccc(OP(=S)(OC)OC)cc2)cc1
no (0)
